Reference source for all entries: paper PMC4648528

- Study system: human 20S proteasome
- Construct: isolated from human erythrocytes (Enzo Life Sciences); purchased Enzo Life Sciences; host or cells: human erythrocytes
- Experiment summary: ChT-L peptidase activity of SDS-activated human 20S proteasome (SucLLVY-MCA)
- Assay type: biochemical
- Condition summary: ChT-L activity; Repetition 1; read-out: Calculated IC50
Ends that are not written are not given here.
Endpoint label: IC50 (µM)
One number for each entry, in µM.

[[record]]
record_sequence = "GRKAARQAARPS [Tat1_A4-5,8–9]"
reported_measurement = 4.89


Inquiry: Recall the recorded IC50 for GRKKRRQAAAPS [Tat1_A8-10] with human 20S proteasome and state it.
Reply text: 1.99

###

- Study system: human 20S proteasome
- Construct: isolated from human erythrocytes (Enzo Life Sciences); purchased Enzo Life Sciences; host or cells: human erythrocytes
- Experiment summary: Microscale thermophoresis with fluorescently labeled human 20S proteasome
- Format: binding
- Condition summary: MST Hill fit; Repetition 2; concentrations listed in nM; read-out: EC50, fitted value (Hill method)
Ends that are not written are not given here.
Endpoint label: EC50

[[record]]
record_sequence = "GRKKRRQAAAPS [Tat1_A8-10]"
endpoint_label = "EC50"
reported_measurement = "12800 nM"


Kindly consider the entry below.
Inquiry: Form field: reported EC50 of GRKAAAQRRRPS [Tat1_A4-6]
Reply text: 10600 nM

###

- Study system: human 20S proteasome
- Construct: isolated from human erythrocytes (Enzo Life Sciences); purchased Enzo Life Sciences; host or cells: human erythrocytes
- Experiment summary: Microscale thermophoresis with fluorescently labeled human 20S proteasome
- Assay type: binding
- Condition summary: MST; average of three repetitions; read-out: Kd, Average
- Experimental: Microscale thermophoresis detects changes in the mobility of protein molecules in temperature gradients generated by IR laser radiation. […] Quantification of these changes is based on either intrinsic fluorophores such as tryptophan or covalently bound dyes. […] The human 20S proteasome was labeled using monolith NT^TM Protein Labeling Kit RED-NHS (NanoTemper Technologies), according to the protocol provided by the supplier. […] Kd values were determined using the internal evaluation software.
Ends that are not written are not given here.
Assignment: determine reported Kd for the given sequences.
Returns: string containing the number followed by the unit.

[[record]]
record_sequence = "GRKKRRQAAAPS [Tat1_A8-10]"
reported_measurement = "13.5 µM"


Then this sequence:
Inquiry: Name the reported Kd value associated with the sequence GRKAAAQRRRPS [Tat1_A4-6]
Reply text: 12.1 µM

###

- Study system: human 20S proteasome
- Construct: isolated from human erythrocytes (Enzo Life Sciences); purchased Enzo Life Sciences; host or cells: human erythrocytes
- Experiment summary: ChT-L peptidase activity of SDS-activated human 20S proteasome (SucLLVY-MCA)
- Format: biochemical
- Condition summary: ChT-L peptidase; 1.5 nM 20S from human erythrocytes activated with 0.01% SDS; 100 μM SucLLVY-MCA; 50 mM Tris/HCl pH 8.0, 0.5 mM EDTA; 37°C; mean (±SD); read-out: IC50
Ends that are not written are not given here.
Endpoint label: pIC50
Numbers only, as −log10 of the molar value.

Please give pIC50 for each item listed below.
1. GRKAAAQRRRPS [Tat1_A4-6]
2. GRKKAAARRRPS [Tat1_A5-7]
3. GRKKRRAAAAPS [Tat1_A7-10]
4. GRAARRQRRRPS [Tat1_A3-4]
5. GRKKRRAAARPS [Tat1_A7-9]
6. GAAARRQRRRPS [Tat1_A2-4]

Reply text:
[5.76, 6.51, 5.55, 6.62, 6.55, 6.35]

Provide pIC50 for all items below, preserving their order.
1. GRAAAAQRRRPS [Tat1_A3-6]
2. GRKAARQRRRPS [Tat1_A4-5]

Reply text:
[5.37, 6.59]
